assay: acute toxicity on peroral dosing to a mouse; settings: in vivo, po, perorally, read-out: peroral dose at which it exhibits an acute toxicity
ENDPOINT_NAME: LD50

MOLECULE	ENDPOINT_NAME	VALUE_MEASURED
O=P(O)(O)OC1O[C@H](CO)[C@@H](O)[C@H](O)[C@H]1O (stereo partly shown) [glucose-1-phosphate calcium]	LD50	≥ 15000 mg/kg
